- Tested on: RAW264.7 macrophages
- run description: MTT cytotoxicity assay, RAW264.7
- Format: cell-based, murine
- condition label: ratio IC50 hFF3 / IC50 RAW264.7
Give measured Selectivity index RAW264 for each item. Keep answers brief.
One number for each entry.

For orientation, consider the following solved cases.
COC(=O)CC[C@@H](C)[C@H]1CC[C@H]2[C@@H]3CC[C@@H]4CC(O)(CNCCCO)CC[C@]4(C)[C@H]3CC(=O)[C@]12C (stereo partly shown) : 1.7
COC(=O)CC[C@@H](C)[C@H]1CCC2[C@@H]3CC[C@@H]4C[C@](O)(CNCCN(C)C)CC[C@]4(C)C3CC(=O)[C@@]21C (stereo partly shown) : 1.2
COC(=O)CC[C@@H](C)[C@H]1CC[C@H]2[C@@H]3CC[C@@H]4CC(O)(CNCCO)CC[C@]4(C)[C@H]3CC(=O)[C@]12C (stereo partly shown) : 1.5
COC(=O)CC[C@@H](C)[C@H]1CCC2[C@@H]3CC[C@@H]4C[C@](O)(CNCCCN(C)C)CC[C@]4(C)C3CC(=O)[C@@]21C (stereo partly shown) : 1
CCN(CC)CCCNC[C@]1(O)CC[C@]2(C)C3CC(=O)[C@@]4(C)C(CC[C@@H]4[C@H](C)CCC(=O)OC)[C@@H]3CC[C@@H]2C1 (stereo partly shown) : 0.9

Hi team, please reply with Selectivity index RAW264 for each item in this list.
1. COC(=O)CC[C@@H](C)[C@H]1CC[C@H]2[C@@H]3CC[C@@H]4CC(O)(CN5CCOCC5)CC[C@]4(C)[C@H]3CC(=O)[C@]12C (stereo partly shown)
2. COC(=O)CC[C@@H](C)[C@H]1CCC2[C@@H]3CC[C@@H]4C[C@](O)(CN5CCN(C)CC5)CC[C@]4(C)C3CC(=O)[C@@]21C (stereo partly shown)
3. CCN1CCN(C[C@]2(O)CC[C@]3(C)C4CC(=O)[C@@]5(C)C(CC[C@@H]5[C@H](C)CCC(=O)OC)[C@@H]4CC[C@@H]3C2)CC1 (stereo partly shown)
4. CCN(CC)CCNC[C@]1(O)CC[C@]2(C)C3CC(=O)[C@@]4(C)C(CC[C@@H]4[C@H](C)CCC(=O)OC)[C@@H]3CC[C@@H]2C1 (stereo partly shown)

Outgoing:
1. 1
2. 1.6
3. 0.5
4. 0.4

###

- Tested on: non-transformed human fibroblasts hFF3
- run description: MTT cytotoxicity assay, hFF3
- Format: cell-based
- condition label: HFF-3, 24 h, read-out: IC50 hFF3 (fibroblast)
Give measured IC50 for each item. Keep answers brief.
One number for each entry, in µM.

COC(=O)CC[C@@H](C)[C@H]1CC[C@H]2[C@@H]3CC[C@@H]4CC(O)(CNCCO)CC[C@]4(C)[C@H]3CC(=O)[C@]12C (stereo partly drawn) : 34.8

Consider the additional compound presented here.
COC(=O)CC[C@@H](C)[C@H]1CC[C@H]2[C@@H]3CC[C@@H]4CC(O)(CNCCCO)CC[C@]4(C)[C@H]3CC(=O)[C@]12C (stereo partly drawn) yielded IC50 of 33.3

###

- System: A549 cells
- run description: MTT cytotoxicity assay, A549
- Format: cell-based, human
- condition label: ratio IC50 hFF3 / IC50 A549
- Description: According to our previous data and data published by other research groups, chemical transformations of bile acids can greatly improve their antitumor potential. Thus, as the first step of evaluation of the biological activities of our novel DCA derivatives we assessed their effects on tumor cell viability. […]
Give measured Selectivity index A549 for each item. Keep answers brief.
Answers are plain numbers.

For orientation, consider the following solved cases.
COC(=O)CC[C@@H](C)[C@H]1CCC2[C@@H]3CC[C@@H]4C[C@](O)(CNCCCN(C)C)CC[C@]4(C)C3CC(=O)[C@@]21C (some centres unmarked) : 1
COC(=O)CC[C@@H](C)[C@H]1CCC2[C@@H]3CC[C@@H]4C[C@](O)(CN5CCN(C)CC5)CC[C@]4(C)C3CC(=O)[C@@]21C (some centres unmarked) : 1.5
C[C@H](CCC(=O)O)[C@H]1CC[C@H]2[C@@H]3CC[C@@H]4C[C@H](O)CC[C@]4(C)[C@H]3C[C@H](O)[C@]12C : 1
COC(=O)CC[C@@H](C)[C@H]1CC[C@H]2[C@@H]3CC[C@@H]4CC(O)(CNCCCO)CC[C@]4(C)[C@H]3CC(=O)[C@]12C (some centres unmarked) : 1.1
CCN1CCN(C[C@]2(O)CC[C@]3(C)C4CC(=O)[C@@]5(C)C(CC[C@@H]5[C@H](C)CCC(=O)OC)[C@@H]4CC[C@@H]3C2)CC1 (some centres unmarked) : 0.7
COC(=O)CC[C@@H](C)[C@H]1CC[C@H]2[C@@H]3CC[C@@H]4CC(O)(CNCCO)CC[C@]4(C)[C@H]3CC(=O)[C@]12C (some centres unmarked) : 1.2

Hi team, please reply with Selectivity index A549 for each item in this list.
1. CCN(CC)CCNC[C@]1(O)CC[C@]2(C)C3CC(=O)[C@@]4(C)C(CC[C@@H]4[C@H](C)CCC(=O)OC)[C@@H]3CC[C@@H]2C1 (some centres unmarked)
2. CCN(CC)CCCNC[C@]1(O)CC[C@]2(C)C3CC(=O)[C@@]4(C)C(CC[C@@H]4[C@H](C)CCC(=O)OC)[C@@H]3CC[C@@H]2C1 (some centres unmarked)

Outgoing:
[0.3, 0.9]
